Here, each record is paired with measured EC50 data.
Target: T1, human LAG-3 on transiently transfected CHO-S cells (human, UniProt P18627 23-525)
T1 construct: also called huLAG-3
T1 sequence: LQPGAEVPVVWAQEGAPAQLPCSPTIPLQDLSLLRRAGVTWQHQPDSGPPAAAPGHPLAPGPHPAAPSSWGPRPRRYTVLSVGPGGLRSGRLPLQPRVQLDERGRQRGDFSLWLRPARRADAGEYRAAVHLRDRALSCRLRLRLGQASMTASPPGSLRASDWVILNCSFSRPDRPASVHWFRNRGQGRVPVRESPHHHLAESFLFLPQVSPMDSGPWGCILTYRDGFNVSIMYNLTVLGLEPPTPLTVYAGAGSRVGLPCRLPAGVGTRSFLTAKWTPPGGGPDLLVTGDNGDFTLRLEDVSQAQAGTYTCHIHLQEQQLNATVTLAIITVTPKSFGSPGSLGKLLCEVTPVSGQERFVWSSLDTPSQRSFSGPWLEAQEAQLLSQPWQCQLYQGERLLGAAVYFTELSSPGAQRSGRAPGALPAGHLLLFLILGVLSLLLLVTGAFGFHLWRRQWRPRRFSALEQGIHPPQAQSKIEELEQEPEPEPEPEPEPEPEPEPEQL
Assay: flow cytometry on transfected CHO-S cells
All answers are understood in nM, so give the number only.

These solved cases illustrate the format of a correct answer.
antibody 15723 (antibody, human IgG1, kappa, L234A L235A, V domains shown, OmniRat-derived human IgG1 LALA, kappa; also called 15723 (39)) VH: QVQLQQWGAGLLKPSETLSLTCAVYGGSFSGYYWNWIRQPPGKGLEWIGEINHSGSTNYNPSLKSRVTISVDTSKNQFSLKLSSVTAADTAVYYCARGEDWGESFFDYWGQGTLVTVSS VL: EIVLTQSPATLSLSPGERATLSCRASQSVSSYLAWYQQKPGQAPRLLIYAASNRATGIPARFSGSGSGTDFTLTISSLEPEDFAVYYCQQRSNWPLTFGGGTKVEIKR : 0.09
antibody 15646 (antibody, human IgG1, kappa, L234A L235A, V domains shown, OmniRat-derived human IgG1 with L234A/L235A (LALA), kappa; also called 15646 (15)) VH: QVQLQQWGAGLLKPSETLSLTCAVYGGSFSGYYWSWIRQPPGKGLEWIGEINHRGSTNYNPSLKSRVTISVDTSKNQFSLKLSSVTAADTAVYYCTRGEEWESLFFDYWGQGTLVTVSS VL: EIVLTQSPATLSLSPGERATLSCRASQSISSYLAWYQQKPGQAPRLLIYGASNRATGIPARFSGSGSGTDFTLTISSLEPEDFAVYYCQQRSNWPLTFGGGTRVEIKR : 0.1
antibody 15431 (antibody, human IgG1, kappa, L234A L235A, V domains shown, OmniRat-derived human IgG1 LALA, kappa; also called 15431 (38); 15431 (83)) VH: QVQLQQSGPGLVKPSQTLSLTCAISGDSVSSNSAAWNWIRQSPSRGLEWLGRTYYRSKWYNDYAVSVKSRITINPDTSKNQFSLQLNSVTPEDTAVYYCARDDDWNDFDYWGQGTLVTVSS VL: EIVLTQSPATLSLSPGERATLSCRASQSVSSYLAWYQQKPGQAPRLLIYDASNRATGIPARFSGSGSGTDFTLTISSLEPEDFAVYYCQQRSNWPLTFGGGTKVEIKR : 0.04

// antibody 15532 (antibody, human IgG1, kappa, L234A L235A, V domains shown, OmniRat-derived human IgG1 LALA, kappa) VH: QVQLQQWGAGLLRPSETLSLTCAVYGESFSGYYWNWIRQPPGKGLEWIGEINHSGSTNYNPSLKSRVTISVDTSKTQFSLKLSSVTAADTAVYYCARGWDLLDWNDYWNEYWGQGTLVTVSS VL: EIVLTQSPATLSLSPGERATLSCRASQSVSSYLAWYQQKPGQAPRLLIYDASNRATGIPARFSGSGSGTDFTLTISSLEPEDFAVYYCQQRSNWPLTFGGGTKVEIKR : EC50 value = 0.07

The binder identified as antibody 15595 (antibody, V domains shown, OmniRat-derived human IgG1 LALA, kappa; also called 15595 (52)) VH: QVQLVQSGAEVKKPGASVKVSCKVSGYSLTEISMHWVRQAPGKGLEWMGGFDPEDGETIYAQRFQGRVIMTEDTSTDTAYMELSSLRSEDTAVYYCATGGWGPNWFDPWGQGTLVTVSS VL: DIQMTQSPSSVSASVGDRVTITCRASQGISSWLAWYQQKPGKAPKLLIYAASSLQSGVPSRFSGSGSGTDFTLTISSLQPEDFATYYCQQANSFPFTFGPGTKVDIKR registered its EC50 at 0.05
